system.name: ATRA 4-hydroxylase (Mesocricetus auratus)
Sequence (A0A1U7QD41 entry or part of it): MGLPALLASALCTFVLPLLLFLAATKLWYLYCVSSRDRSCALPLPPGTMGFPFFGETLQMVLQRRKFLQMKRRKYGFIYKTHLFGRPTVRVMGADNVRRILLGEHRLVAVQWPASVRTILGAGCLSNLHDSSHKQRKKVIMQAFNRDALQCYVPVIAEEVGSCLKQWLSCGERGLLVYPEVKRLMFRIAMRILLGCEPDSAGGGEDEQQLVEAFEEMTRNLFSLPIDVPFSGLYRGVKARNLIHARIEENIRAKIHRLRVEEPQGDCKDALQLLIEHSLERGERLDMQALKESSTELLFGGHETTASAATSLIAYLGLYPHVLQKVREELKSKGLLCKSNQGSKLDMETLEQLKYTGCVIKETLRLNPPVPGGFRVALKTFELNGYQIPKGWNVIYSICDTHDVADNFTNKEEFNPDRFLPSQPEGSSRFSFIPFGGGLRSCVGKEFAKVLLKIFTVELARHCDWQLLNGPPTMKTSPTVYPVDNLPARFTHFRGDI
assay.comment: Hamster liver microsome assay of ATRA metabolism (ATRA 4-hydroxylase inhibition)
Assay type: biochemical
details: hamster liver microsomes; Table 2B, repeated testing and additional compounds; read-out: IC50 Value, Inhibition of ATRA 4-Hydroxylase
outcome.measure: pIC50
Give bare numbers, as −log10 of the molar value.

compound	value.reported
CC1=C(/C=C/C(C)=C/C=C/C(C)=C/C(=O)O)C(C)(C)CCC1n1cncn1 (racemic)	8.30

For each of the compounds below, state pIC50.
1. CC1=C(/C=C/C(C)=C/C=C/C(C)=C/C(=O)O)C(C)(C)CCC1n1ccnc1 (racemic) [VN/14-1, (±)-4-(1H-imidazole-1-yl)retinoic acid]
2. COC(=O)C=C(C)C=CC=C(C)C=CC1=C(C)C(n2cncn2)CCC1(C)C (racemic)

Reply:
[8.92, 9.00]

For each of the compounds below, state pIC50.
1. CC1=C(/C=C/C(C)=C/C=C/C(C)=C/C(=O)O)C(C)(C)CCC1n1cnnc1 (racemic)
2. COC(=O)C=C(C)C=CC=C(C)C=CC1=C(C)C(n2cnnc2)CCC1(C)C (racemic)

Reply:
[7.60, 8.00]
